The values you see were collected from paper PMC9482650.

Target Desc: NHERF4_4, Q86UT5
Sequence (Q86UT5 464-550): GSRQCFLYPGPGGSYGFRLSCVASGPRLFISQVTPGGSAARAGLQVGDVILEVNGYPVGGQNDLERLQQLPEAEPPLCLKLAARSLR
Method Notes: holdup assay
Parameters: key: below the threshold = too weak to quantify, mostly under pKd 3.1 to 4
Measurement Setup: plain residues with an end cap or a label only (N-terminal biotin on a linker: ado-ado)
Measure: pKd

[[record]]
binder = "PDSYHRRDFW [U2AF2, P26368]"
measure = "pKd"
test_value = "below the threshold"

[[record]]
binder = "QLKSGRDSTV [TMEM178A, Q8NBL3]"
measure = "pKd"
test_value = 3.74

[[record]]
binder = "ADEMICITTL [CACNA1D, Q01668]"
measure = "pKd"
test_value = 3.73

[[record]]
binder = "THREVKFTSL [CD46, P15529]"
measure = "pKd"
test_value = "below the threshold"

[[record]]
binder = "PAALPESTHM [SLC9A3, P48764]"
measure = "pKd"
test_value = "below the threshold"

[[record]]
binder = "IGHEDLETAV [DGKI, O75912]"
measure = "pKd"
test_value = "below the threshold"

[[record]]
binder = "DSEEELPTRL [GRK6, P43250]"
measure = "pKd"
test_value = "below the threshold"

[[record]]
binder = "SQDPKKPSRV [CBY2, Q8NA61]"
measure = "pKd"
test_value = 3.67

